System: MOLM-13
Test name: Antiproliferative activity against human MOLM-13 cells assessed as inhibition of cell growth
Assay type: functional, cell-based
Value kind: IC50 (µM)

>>> value_observed("CC1(COc2ccc(Nc3ncc(C(F)(F)F)c(N[C@H]4CC[C@@H](N)CC4)n3)cc2)COC1")
0.0106

----------
Collected IC50 values appear next to each entry.
Test system: Receptor-type tyrosine-protein kinase FLT3 (Homo sapiens, UniProt P36888, D835Y)
Test name: Inhibition of FLT3 D835Y mutant (unknown origin)
Value kind: IC50 (nM)

>>> value_observed("CC1(COc2ccc(Nc3ncc(C(F)(F)F)c(N[C@H]4CC[C@@H](N)CC4)n3)cc2)COC1")
9.21
>>> value_observed("CC1(COc2ccc(Nc3ncc(C(F)(F)F)c(N4CCNCC4)n3)cc2)COC1")
351
>>> value_observed("CC1(COc2ccc(Nc3ncc(C(F)(F)F)c(N[C@H]4CC[C@H](N)CC4)n3)cc2)COC1")
27.5
>>> value_observed("CC1(COc2ccc(Nc3ncc(C(F)(F)F)c(N[C@H]4CC[C@H](O)CC4)n3)cc2)COC1")
64.6
>>> value_observed("CC1(COc2cccc(Nc3ncc(C(F)(F)F)c(N[C@@H]4CCCNC4)n3)c2)COC1")
24.3

----------
Tested on: MM1.S
Test name: Antiproliferative activity against human MM1.S cells assessed as inhibition of cell growth
Format: functional, cell-based
Test settings: mm1.s
Value kind: IC50 (nM)

>>> value_observed("CC1(COc2ccc(Nc3ncc(C(F)(F)F)c(N[C@H]4CC[C@@H](N)CC4)n3)cc2)COC1")
2250

----------
Test system: Receptor-type tyrosine-protein kinase FLT3 (Homo sapiens, UniProt P36888, D835Y)
Test name: Inhibition of FLT3 D835Y mutant (unknown origin)
pIC50: −log10 of the molar value.
Please mark yes (1) if the recorded pIC50 is equal to or greater than 7, and no (0) if it falls below.

>>> category("CC1(COc2ccc(Nc3ncc(C(F)(F)F)c(N4CCOCC4)n3)cc2)COC1")
"no (0)"
>>> category("CC1(COc2cccc(Nc3ncc(C(F)(F)F)c(NCC4CCNCC4)n3)c2)COC1")
"yes (1)"
>>> category("CN1CCN(c2nc(Nc3ccc(OCC4(C)COC4)cc3)ncc2C(F)(F)F)CC1")
"no (0)"
>>> category("CC1(COc2ccc(Nc3ncc(C(F)(F)F)c(N[C@@H]4CCCNC4)n3)cc2)COC1")
"yes (1)"

----------
Test system: Receptor-type tyrosine-protein kinase FLT3 (Homo sapiens, UniProt P36888, D835Y)
Test name: Inhibition of FLT3 D835Y mutant (unknown origin)
pIC50: −log10 of the molar value.
Label scheme for pIC50: lower than 7 is Not fulfilled, 7 and above is Fulfilled.

>>> category("CC1(COc2ccc(Nc3ncc(C(F)(F)F)c(NC4CCNCC4)n3)cc2)COC1")
"Fulfilled"
>>> category("CC1(COc2ccc(Nc3ncc(C(F)(F)F)c(N4CCC(N)CC4)n3)cc2)COC1")
"Not fulfilled"
>>> category("CC1(COc2ccc(Nc3ncc(C(F)(F)F)c(N[C@H]4CC[C@@H](O)CC4)n3)cc2)COC1")
"Fulfilled"
>>> category("CC1(COc2ccc(Nc3ncc(C(F)(F)F)c(NCC4CCNCC4)n3)cc2)COC1")
"Fulfilled"
